# target-desc: MMP-9 (Homo sapiens)
# Construct: from tissue; host or cells: human polymorphonuclear leukocytes (PMN) from whole blood (New York Blood Center), PMA-stimulated supernatant
# Sequence (P14780 107-707 limits assumed): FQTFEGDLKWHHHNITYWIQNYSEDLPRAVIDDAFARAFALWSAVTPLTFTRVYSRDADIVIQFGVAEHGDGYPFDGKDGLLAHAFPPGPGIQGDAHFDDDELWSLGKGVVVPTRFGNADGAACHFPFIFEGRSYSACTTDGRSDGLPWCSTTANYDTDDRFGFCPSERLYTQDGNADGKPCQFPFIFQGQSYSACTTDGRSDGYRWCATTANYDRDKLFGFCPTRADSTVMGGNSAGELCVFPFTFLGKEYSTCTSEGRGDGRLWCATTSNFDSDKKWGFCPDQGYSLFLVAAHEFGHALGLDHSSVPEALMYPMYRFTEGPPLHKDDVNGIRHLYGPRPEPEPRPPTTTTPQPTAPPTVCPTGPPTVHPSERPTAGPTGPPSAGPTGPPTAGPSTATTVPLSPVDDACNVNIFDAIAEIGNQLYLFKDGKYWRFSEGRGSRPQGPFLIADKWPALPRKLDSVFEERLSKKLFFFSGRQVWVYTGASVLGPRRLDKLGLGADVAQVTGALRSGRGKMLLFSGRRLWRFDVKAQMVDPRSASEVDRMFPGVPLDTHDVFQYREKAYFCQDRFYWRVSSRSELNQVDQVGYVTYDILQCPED
# assay-summary: Automated MMP Profiling Assay, MMP-9 fluorogenic
# Assay type: biochemical
# condition-info: 96-well automated, P218
Below, each entry is listed with its recorded pIC50.
As a rule, pIC50 stands for the negative log10 of the concentration, concentration in M.

Guide cases for pIC50, answers given:
CCN(CC)C(=O)c1cccc(CC[C@H](CC(=O)c2ccc(-c3ccc(Cl)cc3)cc2)C(=O)O)c1 [Example 146] | 5.57
O=C(O)[C@@H]1[C@@H](C(=O)c2ccc(-c3ccc(Cl)cc3)cc2)CC[C@H]1Sc1ccccc1 (relative stereo) [Example 294] | 6.75

Prompt: Which pIC50 value is on record for O=C(CC(CCCc1ccccc1)C(=O)O)c1ccc(-c2ccc(OCc3ccccc3)cc2)cc1 (stereo not shown) [Example 99] ?
Completion: 6.08

----------
# target-desc: MMP-3 (Homo sapiens)
# Construct: Truncated Prostromelysin-257 was expressed in a soluble form in E.coli; made in house; host or cells: E. coli
# Sequence (P08254 100-274 limits assumed): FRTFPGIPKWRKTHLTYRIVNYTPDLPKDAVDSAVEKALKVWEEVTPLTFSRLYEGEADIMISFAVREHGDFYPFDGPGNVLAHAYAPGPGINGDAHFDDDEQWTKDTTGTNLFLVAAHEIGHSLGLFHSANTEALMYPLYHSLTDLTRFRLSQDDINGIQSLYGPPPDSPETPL
# assay-summary: Automated MMP Profiling Assay, MMP-3 fluorogenic
# Format: biochemical
# condition-info: at 5 μM
measured-endpoint: inhibition at 5 µM (%)
Numeric answer only, unit % assumed.

Guide cases for inhibition at 5 µM, answers given:
CCCCCOc1ccc(-c2ccc(C(=O)[C@H]3CC[C@@H](Sc4ccccc4)[C@@H]3C(=O)O)cc2)cc1 (single isomer, unassigned) | 6
CCCCCCc1ccc(-c2ccc(CCC(CCCc3ccccc3)C(=O)O)cc2)cc1 (stereo not drawn) | 15
CCCCCCCCCCOc1ccc(-c2ccc(C(=O)CC(CCCc3ccccc3)C(=O)O)cc2)cc1 (stereo not drawn) | 8
O=C(c1ccc(-c2ccc(Cl)cc2)cc1)[C@@H]1CCN(C(=O)OCc2ccccc2)[C@H]1C(=O)O | 18
O=C(O)[C@@H]1CN(Cc2ccccc2)C[C@H]1C(=O)c1ccc(-c2ccc(Cl)cc2)cc1 (relative stereo) | 28
O=C(O)[C@@H]1[C@@H](C(=O)c2ccc(-c3ccc(Cl)cc3)cc2)[C@H]2C=C[C@@H]1C2 (relative stereo) | 11
CC(=O)O[C@@H]1C[C@@H](C(=O)c2ccc(-c3ccc(Cl)cc3)cc2)[C@H]1C(=O)O (relative stereo) | 26
O=C(CC(CCCc1ccccc1)C(=O)O)c1ccc(-c2ccc(C(=O)O)o2)cc1 (stereo not drawn) | 0
O=C(CC(CCCc1ccccc1)C(=O)O)c1ccc(-c2cccnc2)cc1 (stereo not drawn) | 44
CC(=O)O[C@H]1C[C@@H](C(=O)c2ccc(-c3ccc(Cl)cc3)cc2)[C@H]1C(=O)O (relative stereo) | 18

Prompt: Which inhibition at 5 µM value is on record for O=C(O)[C@H]1[C@H](C(=O)c2ccc(-c3ccc(Cl)cc3)cc2)[C@H]2C=C[C@@H]1C2 (relative stereo) ?
Completion: 26

----------
Below, each entry is listed with its recorded log10 IC50.
# target-desc: MMP-9 (Homo sapiens)
# Construct: from tissue; host or cells: human polymorphonuclear leukocytes (PMN) from whole blood (New York Blood Center), PMA-stimulated supernatant
# assay-summary: Automated MMP Profiling Assay, MMP-9 fluorogenic
# Format: biochemical
# condition-info: 96-well automated, P218
Response schema: value (number) is log10 of IC50 in units of nM.

O=C(O)[C@H]1[C@H](COc2ccc(Cl)cc2)CC[C@@H]1C(=O)c1ccc(-c2ccc(Cl)cc2)cc1 (relative stereo) [Example 388] | 2.67
O=C(CC(CCCc1ccccc1)C(=O)O)c1ccc(-c2ccc(OCc3ccncc3)cc2)cc1 (stereo not drawn) [Example 111] | 3.67
COc1ccc(CSCCC(CC(=O)c2ccc(-c3ccc(Cl)cc3)cc2)C(=O)O)cc1 (stereo not drawn) [Example 427] | 2.56
CCCCCOc1ccc(-c2ccc(C(=O)CC(CCN3C(=O)c4ccccc4C3=O)C(=O)O)cc2)cc1 (stereo not drawn) [Example 272] | 1.03
O=C(NC[C@@H]1CC[C@H](C(=O)c2ccc(-c3ccc(Cl)cc3)cc2)[C@H]1C(=O)O)OCc1ccccc1 (relative stereo) [Example 377] | 1.64

Prompt: Which log10 IC50 value is on record for O=C(O)[C@H]1[C@H](CN2C(=O)c3cc(Cl)c(Cl)cc3C2=O)CC[C@@H]1C(=O)c1ccc(-c2ccc(Cl)cc2)cc1 (relative stereo) [Example 391] ?
Completion: 0.62

Prompt: Which log10 IC50 value is on record for O=C(O)[C@H]1[C@H](COc2ccccc2)CC[C@@H]1C(=O)c1ccc(-c2ccc(Cl)cc2)cc1 (relative stereo) [Example 366] ?
Completion: 1.75

Prompt: Which log10 IC50 value is on record for CCCCCOc1ccc(-c2ccc(C(=O)[C@H]3CC[C@H](Sc4ccccc4)[C@@H]3C(=O)O)cc2)cc1 (relative stereo) [Example 317] ?
Completion: 2.91

Prompt: Which log10 IC50 value is on record for O=C(CC(CCN1C(=O)c2cc3ccccc3cc2C1=O)C(=O)O)c1ccc(-c2ccc(Cl)cc2)cc1 (stereo not drawn) [Example 409] ?
Completion: 0.28

Prompt: Which log10 IC50 value is on record for CC(=O)Nc1ccc(-c2ccc(C(=O)CC(CCc3ccccc3)C(=O)O)cc2)cc1 (stereo not drawn) [Example 139] ?
Completion: 3.70

Prompt: Which log10 IC50 value is on record for CCN(CC)C(=O)c1cccc(CC[C@@H](CC(=O)c2ccc(-c3ccc(Cl)cc3)cc2)C(=O)O)c1 [Example 145] ?
Completion: 1.28

Prompt: Which log10 IC50 value is on record for O=C(CC(CCCc1ccccc1)C(=O)O)c1ccc(-c2ccc(Cl)cc2)cc1 (stereo not drawn) [Example 114] ?
Completion: 2.64
